# testedTarget: T1, full length recombinant human 2N4R tau (human, UniProt P10636 1-758)
# T1 construct: bought from rPeptide; pHrodo Red maleimide-labelled where it stands in uptake assays; also called tau1-441; full length tau
# T1 sequence (P10636 other isoform, or with tags, fused parts or gaps limits assumed): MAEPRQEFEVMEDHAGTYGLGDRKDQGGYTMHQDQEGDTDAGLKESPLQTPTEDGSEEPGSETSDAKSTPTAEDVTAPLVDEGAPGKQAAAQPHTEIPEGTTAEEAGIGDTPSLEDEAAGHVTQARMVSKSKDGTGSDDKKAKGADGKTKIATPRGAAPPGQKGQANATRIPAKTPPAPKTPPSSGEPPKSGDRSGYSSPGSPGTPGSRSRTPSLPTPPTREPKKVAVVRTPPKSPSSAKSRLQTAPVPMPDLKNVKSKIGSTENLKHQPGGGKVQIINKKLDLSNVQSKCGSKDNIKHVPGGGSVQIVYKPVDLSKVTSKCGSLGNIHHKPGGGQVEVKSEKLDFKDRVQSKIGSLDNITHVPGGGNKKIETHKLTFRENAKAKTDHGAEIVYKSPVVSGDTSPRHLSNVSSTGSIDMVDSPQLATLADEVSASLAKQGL
# testSummary: SPR SCK, IgG on Protein A, tau in flow
pKd: −log10 of the molar value.

binder	pKd
#44 VH5VK3 humanised hIgG1 (antibody, V domains shown, also called VH5Vκ3) VH: QVQLQESGPGLVKPSETLSLTCTVSGIDLSSYAMAWVRQAPGKGLEWIGCIDRRGGTFYASWVKGRFTISRDNSKNTLDLQMTSLTAEDTATYYCARDSGAFDPWGQGTLVTVSS VL: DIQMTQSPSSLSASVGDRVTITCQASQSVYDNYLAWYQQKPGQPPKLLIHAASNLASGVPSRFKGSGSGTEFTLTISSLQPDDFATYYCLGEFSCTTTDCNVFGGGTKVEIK	7.85
#44 VH5VK2 humanised hIgG1 (antibody, V domains shown, also called VH5Vκ2) VH: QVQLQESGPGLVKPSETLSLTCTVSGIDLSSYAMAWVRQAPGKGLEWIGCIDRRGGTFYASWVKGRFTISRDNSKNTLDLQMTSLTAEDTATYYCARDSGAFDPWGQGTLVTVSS VL: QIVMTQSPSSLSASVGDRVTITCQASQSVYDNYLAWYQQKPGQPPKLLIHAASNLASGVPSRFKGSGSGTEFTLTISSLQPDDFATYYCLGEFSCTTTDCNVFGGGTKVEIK	7.90
#44_VH4VK4 humanised hIgG1 (antibody, V domains shown, also called VH4Vκ4; pVH/pVL) VH: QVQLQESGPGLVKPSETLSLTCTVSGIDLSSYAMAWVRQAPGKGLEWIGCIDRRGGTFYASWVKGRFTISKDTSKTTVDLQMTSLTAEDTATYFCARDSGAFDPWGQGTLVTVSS VL: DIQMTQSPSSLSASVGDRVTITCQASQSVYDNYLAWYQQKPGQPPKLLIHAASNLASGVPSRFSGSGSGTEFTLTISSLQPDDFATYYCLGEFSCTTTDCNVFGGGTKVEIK	8.09

Data credit: patent US20250270301A1
